Target: HLA-A*02 (human)
Test: UV peptide-exchange ELISA, yield grade
attribute.measured: peptide exchange yield

Below: 3 binders and their reported peptide exchange yield.
> print(dat)
                                   binder  recorded.result
1   FIFDEAEKL [FIFDEAEKL (SEQ ID NO: 82)]            < 20%
2  YAIGLVMRL [YAIGLVMRL (SEQ ID NO: 266)]        50 to 75%
3  SLGKFTFDV [SLGKFTFDV (SEQ ID NO: 112)]            ≥ 75%

Please find the next binder below.
## Task Which peptide exchange yield value belongs to GIVAHIQEV [GIVAHIQEV (SEQ ID NO: 5)] ?
## Result 50 to 75%
